Target: Interleukin-1 receptor-associated kinase 4 (Homo sapiens, UniProt Q9NWZ3)
Sequence (Q9NWZ3 whole entry): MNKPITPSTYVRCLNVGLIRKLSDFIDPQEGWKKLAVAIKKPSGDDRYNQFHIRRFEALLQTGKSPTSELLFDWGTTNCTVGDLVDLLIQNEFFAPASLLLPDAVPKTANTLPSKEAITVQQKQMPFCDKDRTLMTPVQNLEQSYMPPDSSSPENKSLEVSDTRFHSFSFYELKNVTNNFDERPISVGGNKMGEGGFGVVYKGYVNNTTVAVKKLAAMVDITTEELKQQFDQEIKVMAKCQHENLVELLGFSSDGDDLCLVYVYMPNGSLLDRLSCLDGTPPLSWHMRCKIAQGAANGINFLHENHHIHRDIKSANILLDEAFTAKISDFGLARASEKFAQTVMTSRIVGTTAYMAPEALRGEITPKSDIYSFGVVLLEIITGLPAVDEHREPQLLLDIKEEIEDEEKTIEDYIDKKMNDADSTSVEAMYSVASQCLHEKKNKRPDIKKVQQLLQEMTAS
Value kind: IC50

In [3]: df
Out[3]:
                                   compound  recorded_value
0  CC(C)Nc1c(C(=O)NCCC2CCNC2)cnc2c1[nH]c1cc(C#N)ccc12 (stereo unspecified)          1.9 nM
